Every entry's value here was drawn from paper PMC6016464.

Entries and their kon
Target System: T1, MCL-1 (mouse, residues 152-308) (mouse)
T1 construct: remnant of thrombin cleavage at the N-terminus of MCL-1; MCL-1, mouse, residues 152-308, UniProt P97287; source: E. coli C41 pLysS, purified (Ni2+ agarose, thrombin cleavage, ion exchange, Superdex G75 gel filtration); not shown: His6, N-terminal, cleaved
T1 chain: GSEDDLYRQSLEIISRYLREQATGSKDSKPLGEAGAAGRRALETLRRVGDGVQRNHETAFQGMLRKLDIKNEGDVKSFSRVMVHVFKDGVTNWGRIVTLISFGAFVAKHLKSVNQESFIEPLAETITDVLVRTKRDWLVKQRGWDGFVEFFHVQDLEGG
Method: stopped-flow fluorescence kinetics; association; TAMRA-labelled peptide with folded partner at least 10-fold higher (pseudo-first-order); kon from the gradient of kobs versus partner concentration; 25 °C; 50 mM sodium phosphate, 0.05% (v/v) Tween 20, pH 7.0
Study Conditions: both partners purified
Where no end group is shown, it is not given here. The star is where a group is joined. TAMRA = 5-carboxytetramethylrhodamine, CN(C)c1ccc2c(-c3ccc(C(=O)*)cc3C(=O)[O-])c3ccc(=[N+](C)C)cc-3oc2c1
Dear colleague, please return just the value in M⁻¹ s⁻¹, with no unit written.

Some solved entries appear below for comparison.
{"columns": ["Binder", "kon [M⁻¹ s⁻¹]"],
 "data": [
  ["{TAMRA}-SESQEEIIHNIARHLAQIGDEADHNIQPTLVRQLA (peptide, UniProt P70444 76-110, looked up, BID, mouse, residues 76-110, UniProt P70444; source: synthetic peptide (Biomatik)) [BID M97A peptide, TAMRA-labelled]", "7.8e+06"],
  ["{TAMRA}-SESQEEIIHNIARHLAQIGDAMDHNIQPTLVRQLA (peptide, UniProt P70444 76-110, looked up, BID, mouse, residues 76-110, UniProt P70444; source: synthetic peptide (Biomatik)) [BID E96A peptide, TAMRA-labelled]", "9.9e+06"],
  ["{TAMRA}-SESQEEIIHNAARHLAQIGDEMDHNIQPTLVRQLA (peptide, UniProt P70444 76-110, looked up, BID, mouse, residues 76-110, UniProt P70444; source: synthetic peptide (Biomatik)) [BID I86A peptide, TAMRA-labelled]", "4e+06"],
  ["{TAMRA}-SESQEEIIHNIARHAAQIGDEMDHNIQPTLVRQLA (peptide, UniProt P70444 76-110, looked up, BID, mouse, residues 76-110, UniProt P70444; source: synthetic peptide (Biomatik)) [BID L90A peptide, TAMRA-labelled]", "2.1e+06"],
  ["{TAMRA}-SESQEEIIHNIARHLAQIGDGMDHNIQPTLVRQLA (peptide, UniProt P70444 76-110, looked up, BID, mouse, residues 76-110, UniProt P70444; source: synthetic peptide (Biomatik)) [BID E96G peptide, TAMRA-labelled]", "1.09e+07"]
]}

With those in mind, consider the next binder.
Would you kindly share the measured kon for {TAMRA}-SESQEEAIHNIARHLAQIGDEMDHNIQPTLVRQLA (peptide, UniProt P70444 76-110, looked up, BID, mouse, residues 76-110, UniProt P70444; source: synthetic peptide (Biomatik)) [BID I82A peptide, TAMRA-labelled] ?
9.5e+06
